- Test system: PXR homodimer (NR concentration 270 nM)
- Assay Explanation: PBM binding z-score (relative to random genomic background probes); higher = stronger binding; sequences stand for … in GC…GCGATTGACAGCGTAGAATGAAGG
Overview of reported PBM binding z-score across a group of sequences:

{"Seq String": "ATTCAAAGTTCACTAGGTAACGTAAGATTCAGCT", "PBM binding z-score": 3.03}
{"Seq String": "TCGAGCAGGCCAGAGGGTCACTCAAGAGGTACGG", "PBM binding z-score": -0.594}
{"Seq String": "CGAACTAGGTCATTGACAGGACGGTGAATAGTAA", "PBM binding z-score": -0.168}
{"Seq String": "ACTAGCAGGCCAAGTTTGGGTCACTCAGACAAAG", "PBM binding z-score": -0.504}
{"Seq String": "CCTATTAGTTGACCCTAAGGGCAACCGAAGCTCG", "PBM binding z-score": 1.16}
{"Seq String": "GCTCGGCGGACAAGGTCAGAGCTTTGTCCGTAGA", "PBM binding z-score": -0.547}
{"Seq String": "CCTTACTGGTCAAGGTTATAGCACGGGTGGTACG", "PBM binding z-score": 0.519}
{"Seq String": "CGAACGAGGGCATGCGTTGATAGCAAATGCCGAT", "PBM binding z-score": -0.453}
{"Seq String": "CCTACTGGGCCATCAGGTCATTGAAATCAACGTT", "PBM binding z-score": 0.298}
{"Seq String": "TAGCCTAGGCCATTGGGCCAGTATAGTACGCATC", "PBM binding z-score": -0.712}
{"Seq String": "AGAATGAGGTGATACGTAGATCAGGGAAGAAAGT", "PBM binding z-score": 0.133}
{"Seq String": "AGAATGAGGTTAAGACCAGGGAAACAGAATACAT", "PBM binding z-score": 0.319}
{"Seq String": "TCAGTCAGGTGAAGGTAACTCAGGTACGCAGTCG", "PBM binding z-score": 0.129}
{"Seq String": "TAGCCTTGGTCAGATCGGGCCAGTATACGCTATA", "PBM binding z-score": -0.538}
{"Seq String": "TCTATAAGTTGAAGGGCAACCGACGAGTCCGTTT", "PBM binding z-score": 0.652}
{"Seq String": "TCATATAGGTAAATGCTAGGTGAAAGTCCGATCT", "PBM binding z-score": 0.387}
{"Seq String": "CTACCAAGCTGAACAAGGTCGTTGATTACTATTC", "PBM binding z-score": 1.02}
{"Seq String": "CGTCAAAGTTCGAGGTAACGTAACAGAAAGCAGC", "PBM binding z-score": 0.589}
{"Seq String": "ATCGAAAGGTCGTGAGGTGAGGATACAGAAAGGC", "PBM binding z-score": 0.684}
{"Seq String": "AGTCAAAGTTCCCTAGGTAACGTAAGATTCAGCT", "PBM binding z-score": -0.697}
{"Seq String": "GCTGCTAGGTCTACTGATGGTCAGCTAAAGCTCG", "PBM binding z-score": -1.2}
{"Seq String": "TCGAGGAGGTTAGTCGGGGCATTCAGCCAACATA", "PBM binding z-score": 0.348}

---

- Tested on: PXR:RXRa (NR concentration 270 nM, RXRa partner concentration 90 nM)
- Assay Explanation: PBM binding z-score (relative to random genomic background probes); higher = stronger binding; sequences stand for … in GC…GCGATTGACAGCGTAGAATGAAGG
Value Type: PBM binding z-score

{"Seq String": "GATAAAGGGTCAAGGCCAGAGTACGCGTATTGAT", "Value Type": "PBM binding z-score", "Observed Result": 4.19}
{"Seq String": "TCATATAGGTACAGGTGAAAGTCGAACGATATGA", "Value Type": "PBM binding z-score", "Observed Result": 0.509}
{"Seq String": "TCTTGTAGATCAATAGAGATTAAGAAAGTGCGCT", "Value Type": "PBM binding z-score", "Observed Result": 0.374}
{"Seq String": "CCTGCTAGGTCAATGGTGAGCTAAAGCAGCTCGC", "Value Type": "PBM binding z-score", "Observed Result": 0.37}
{"Seq String": "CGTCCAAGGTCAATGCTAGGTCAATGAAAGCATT", "Value Type": "PBM binding z-score", "Observed Result": 5.09}
{"Seq String": "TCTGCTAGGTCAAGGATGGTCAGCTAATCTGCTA", "Value Type": "PBM binding z-score", "Observed Result": 1.23}
{"Seq String": "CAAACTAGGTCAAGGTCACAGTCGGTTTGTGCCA", "Value Type": "PBM binding z-score", "Observed Result": 5.3}
{"Seq String": "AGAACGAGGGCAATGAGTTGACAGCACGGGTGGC", "Value Type": "PBM binding z-score", "Observed Result": 1.19}
{"Seq String": "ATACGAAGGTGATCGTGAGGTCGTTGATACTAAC", "Value Type": "PBM binding z-score", "Observed Result": 2.82}
{"Seq String": "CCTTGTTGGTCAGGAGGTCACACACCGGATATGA", "Value Type": "PBM binding z-score", "Observed Result": 4.22}
{"Seq String": "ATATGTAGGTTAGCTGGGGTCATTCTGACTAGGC", "Value Type": "PBM binding z-score", "Observed Result": 6.41}
{"Seq String": "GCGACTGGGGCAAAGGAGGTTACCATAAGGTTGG", "Value Type": "PBM binding z-score", "Observed Result": 1.54}
{"Seq String": "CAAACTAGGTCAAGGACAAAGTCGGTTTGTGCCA", "Value Type": "PBM binding z-score", "Observed Result": 1.6}
{"Seq String": "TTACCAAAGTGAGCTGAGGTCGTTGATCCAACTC", "Value Type": "PBM binding z-score", "Observed Result": 2.11}
{"Seq String": "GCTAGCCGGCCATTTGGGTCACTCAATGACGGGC", "Value Type": "PBM binding z-score", "Observed Result": 0.15}
{"Seq String": "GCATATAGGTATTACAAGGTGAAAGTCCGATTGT", "Value Type": "PBM binding z-score", "Observed Result": 0.0796}
{"Seq String": "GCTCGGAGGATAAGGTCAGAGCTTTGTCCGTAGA", "Value Type": "PBM binding z-score", "Observed Result": 1.86}

---

- Tested on: RARb:RXRa (NR concentration 270 nM, RXRa partner concentration 90 nM)
- Assay Explanation: PBM binding z-score (relative to random genomic background probes); higher = stronger binding; sequences stand for … in GC…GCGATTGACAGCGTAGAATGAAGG

{"Seq String": "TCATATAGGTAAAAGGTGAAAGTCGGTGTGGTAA", "Target Or System": "RARb:RXRa (NR concentration 270 nM, RXRa partner concentration 90 nM)", "PBM binding z-score": 2.22}
{"Seq String": "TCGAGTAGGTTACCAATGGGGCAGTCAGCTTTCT", "Target Or System": "RARb:RXRa (NR concentration 270 nM, RXRa partner concentration 90 nM)", "PBM binding z-score": 0.908}
{"Seq String": "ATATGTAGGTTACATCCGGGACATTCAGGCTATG", "Target Or System": "RARb:RXRa (NR concentration 270 nM, RXRa partner concentration 90 nM)", "PBM binding z-score": 1.08}
{"Seq String": "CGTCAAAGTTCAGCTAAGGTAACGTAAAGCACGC", "Target Or System": "RARb:RXRa (NR concentration 270 nM, RXRa partner concentration 90 nM)", "PBM binding z-score": 4.65}
{"Seq String": "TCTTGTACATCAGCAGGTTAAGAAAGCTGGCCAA", "Target Or System": "RARb:RXRa (NR concentration 270 nM, RXRa partner concentration 90 nM)", "PBM binding z-score": 0.473}
{"Seq String": "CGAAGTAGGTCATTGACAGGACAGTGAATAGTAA", "Target Or System": "RARb:RXRa (NR concentration 270 nM, RXRa partner concentration 90 nM)", "PBM binding z-score": 3.58}
{"Seq String": "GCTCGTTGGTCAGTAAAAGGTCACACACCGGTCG", "Target Or System": "RARb:RXRa (NR concentration 270 nM, RXRa partner concentration 90 nM)", "PBM binding z-score": 4.48}
{"Seq String": "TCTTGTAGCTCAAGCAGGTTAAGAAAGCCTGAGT", "Target Or System": "RARb:RXRa (NR concentration 270 nM, RXRa partner concentration 90 nM)", "PBM binding z-score": -0.012}
